Source listed as patent US11820822B2.

List of OT1 (sgRNA Log(2) fold change, OT-I selection versus control T cells) values.
tested on: B16F10-Cas9 cells pulsed with SIINFEKL peptide, co-cultured with OT-I T cells; assay: Genome-scale CRISPR-Cas9 screen, selection with OT-I T cells; type: cell-based, mouse; conditions: Table 3; B16F10-Cas9 cells pulsed with SIINFEKL, co-cultured with OT-I T cells 1:1 for one day; negative = depleted, positive = enriched
Give the figure by itself; no unit, no explanation.

TCAGCAACTGAGAACTCACT (chemistry not fully specified) : -1.37
TATGTGGAGCATAACCGGAG (chemistry not fully specified) : 2.95
CCTTCAATAACGTTAAACAG (chemistry not fully specified) : -2.79

Form entry - test system: B16F10-Cas9 cells pulsed with SIINFEKL peptide, co-cultured with OT-I T cells; read-out: OT1 (sgRNA Log(2) fold change, OT-I selection versus control T cells); sequence: CTTCCTGGACATCGACGTGG (chemistry not fully specified)
-2.12

Observed OT1 (sgRNA Log(2) fold change, OT-I selection versus control T cells) on B16F10-Cas9 cells pulsed with SIINFEKL peptide, co-cultured with OT-I T cells for GACAAGATGACAAACCTGGT (chemistry not fully specified) , please.
1.65

I'm curious: which OT1 (sgRNA Log(2) fold change, OT-I selection versus control T cells) was measured for GATGTGTCCCTAGTCTACCG (chemistry not fully specified) tested on B16F10-Cas9 cells pulsed with SIINFEKL peptide, co-cultured with OT-I T cells?
-3.40

// map GAAGACCAAAGAAGTTCATG (chemistry not fully specified) to recorded OT1 (sgRNA Log(2) fold change, OT-I selection versus control T cells) (system: B16F10-Cas9 cells pulsed with SIINFEKL peptide, co-cultured with OT-I T cells)
-0.52

----------
Entries and their measured Pmel+ (sgRNA Log(2) fold change, Pmel-1 selection versus control T cells) follow.
system: B16F10-Cas9 cells co-cultured with Pmel-1 T cells; assay: Genome-scale CRISPR-Cas9 screen, selection with Pmel-1 T cells; format: cell-based, mouse; conditions: Table 3; B16F10-Cas9 cells pre-treated with IFNγ, co-cultured with Pmel-1 T cells 1:1 for three days; negative = depleted, positive = enriched
Lab note: jot down the number only; don't add units.

Here's what some known entries look like.
GCCTGTACCACGCAGCCAAG (chemistry not fully specified) : 0.00
TAATTGCTGAGAATGTACTC (chemistry not fully specified) : 0.00

Shifting focus to the sequence that follows.
Need Pmel+ (sgRNA Log(2) fold change, Pmel-1 selection versus control T cells) of CTTGTGACGGTAATTCTGAA (chemistry not fully specified) , thanks.
0.00

----------
test system: B16F10-Cas9 cells co-cultured with Pmel-1 T cells; assay: Genome-scale CRISPR-Cas9 screen, selection with Pmel-1 T cells; type: cell-based, mouse; settings: Table 3; B16F10-Cas9 cells pre-treated with IFNγ, co-cultured with Pmel-1 T cells 1:1 for three days; negative = depleted, positive = enriched
Returns label 1 if the recorded Pmel+ (sgRNA Log(2) fold change, Pmel-1 selection versus control T cells) is greater than or equal to 0.6, and label 0 otherwise.

Check out these entries, answers already filled in.
CTTCCTGGACATCGACGTGG (chemistry not fully specified) : label 0
AAAACGGTCTCAAGCCAATG (chemistry not fully specified) : label 1
GCAGGGGTCTCCTTATGTCG (chemistry not fully specified) : label 0
GGACGAGAGCAACATAAACA (chemistry not fully specified) : label 1
CTCTTCCAACACGTCCAAGT (chemistry not fully specified) : label 1
GCCAGCTTTCTCGCACGTGG (chemistry not fully specified) : label 0

Is Pmel+ (sgRNA Log(2) fold change, Pmel-1 selection versus control T cells) at least 0.6? Consider ATAGCACCAAAGCCTAACAA (chemistry not fully specified)
label 0

Identify whether the reported Pmel+ (sgRNA Log(2) fold change, Pmel-1 selection versus control T cells) of the following sequence is 0.6 or greater: GAACACTCAGCAAATTACAG (chemistry not fully specified)
label 0

Identify whether the reported Pmel+ (sgRNA Log(2) fold change, Pmel-1 selection versus control T cells) of the following sequence is 0.6 or greater: GGCCCCGACTCAGACCCGCG (chemistry not fully specified)
label 1

Item TCCCTTTGATGTGTTCCACG (chemistry not fully specified) with Pmel+ (sgRNA Log(2) fold change, Pmel-1 selection versus control T cells) of 0.6 or above?
label 1

Dear colleague, could you confirm whether TCTGTTGAAAGAGCGCCAAA (chemistry not fully specified) has Pmel+ (sgRNA Log(2) fold change, Pmel-1 selection versus control T cells) at or above 0.6?
label 0

Exam item: decide whether the reported Pmel+ (sgRNA Log(2) fold change, Pmel-1 selection versus control T cells) for TTCAGGGTGAAATACGAGGA (chemistry not fully specified) is at least 0.6.
label 1

# bool: Pmel+ (sgRNA Log(2) fold change, Pmel-1 selection versus control T cells) of TGGTCTAGTTACCATGCAAG (chemistry not fully specified) >= 0.6
label 0

Pmel+ (sgRNA Log(2) fold change, Pmel-1 selection versus control T cells) >= 0.6 for TTGTGCCTAAACAAAAAACA (chemistry not fully specified) ?
label 1

Assess whether reported Pmel+ (sgRNA Log(2) fold change, Pmel-1 selection versus control T cells) for TTGTGAGGCAAACTGAACGA (chemistry not fully specified) sits at 0.6 or higher.
label 0

Assess whether reported Pmel+ (sgRNA Log(2) fold change, Pmel-1 selection versus control T cells) for TCAGCAACTGAGAACTCACT (chemistry not fully specified) sits at 0.6 or higher.
label 0

----------
OT1 (sgRNA Log(2) fold change, OT-I selection versus control T cells) values for the sequences below.
test system: B16F10-Cas9 cells pulsed with SIINFEKL peptide, co-cultured with OT-I T cells; assay: Genome-scale CRISPR-Cas9 screen, selection with OT-I T cells; assay type: cell-based, mouse; conditions: Table 3; B16F10-Cas9 cells pulsed with SIINFEKL, co-cultured with OT-I T cells 1:1 for one day; negative = depleted, positive = enriched
Answer field: number only, no words.

Some sequences with known OT1 (sgRNA Log(2) fold change, OT-I selection versus control T cells) results, for comparison:
ACAGGGAAAGCATGGGACAC (chemistry not fully specified) : -2.35
GCTGCAGAGGCAGTTTGATG (chemistry not fully specified) : -3.06
ACACAACGCTAAGACAGTCG (chemistry not fully specified) : -3.60

Which measured OT1 (sgRNA Log(2) fold change, OT-I selection versus control T cells) value corresponds to AAACATATAGTGTACCTCTA (chemistry not fully specified) ?
2.36

Would you kindly share the measured OT1 (sgRNA Log(2) fold change, OT-I selection versus control T cells) for CCGCAGCAGATAGACACCAT (chemistry not fully specified) ?
-2.54

Would you kindly share the measured OT1 (sgRNA Log(2) fold change, OT-I selection versus control T cells) for CGGCCCGCCGATGTCGTGTG (chemistry not fully specified) ?
-3.19

Any idea what OT1 (sgRNA Log(2) fold change, OT-I selection versus control T cells) was measured for TCATAGCCAGAGCATACTCT (chemistry not fully specified) ?
-3.24

Any idea what its OT1 (sgRNA Log(2) fold change, OT-I selection versus control T cells) is? The sequence is ATAGAAATCTGACACTGCCG (chemistry not fully specified)
-2.12

----------
test system: B16F10-Cas9 cells pulsed with SIINFEKL peptide, co-cultured with OT-I T cells; assay: Genome-scale CRISPR-Cas9 screen, selection with OT-I T cells; format: cell-based, mouse; conditions: Table 3; B16F10-Cas9 cells pulsed with SIINFEKL, co-cultured with OT-I T cells 1:1 for one day; negative = depleted, positive = enriched
readout-kind: OT1 (sgRNA Log(2) fold change, OT-I selection versus control T cells)
Answer using only a numeral; do not append any unit.

TTGTGAGGCAAACTGAACGA (chemistry not fully specified) : -2.11
GAATTGCAACGCCCACACCG (chemistry not fully specified) : -3.93
CCTCCGACATTCCGTAACTG (chemistry not fully specified) : -2.32

Consider the record given below.
So what's the measured OT1 (sgRNA Log(2) fold change, OT-I selection versus control T cells) for this one? CAGCATTGACAATACGACCA (chemistry not fully specified)
-3.84

----------
test system: B16F10-Cas9 cells co-cultured with Pmel-1 T cells; assay: Genome-scale CRISPR-Cas9 screen, selection with Pmel-1 T cells; format: cell-based, mouse; settings: Table 3; B16F10-Cas9 cells pre-treated with IFNγ, co-cultured with Pmel-1 T cells 1:1 for three days; negative = depleted, positive = enriched
readout-kind: Pmel+ (sgRNA Log(2) fold change, Pmel-1 selection versus control T cells)

GAGTTGCAGCCAGATACGCG (chemistry not fully specified) : -1.28
CAGGACTTCTGGTCTATCCG (chemistry not fully specified) : -1.47
GTGAGCCTGAGGAACCTGCT (chemistry not fully specified) : 3.08
CCTTTAGTAGCAGAAGCCGC (chemistry not fully specified) : 0.73

Entry GGTTCGCTTCTTCCAAACCA (chemistry not fully specified) : reported Pmel+ (sgRNA Log(2) fold change, Pmel-1 selection versus control T cells) = ?
-2.08

Quick check: Pmel+ (sgRNA Log(2) fold change, Pmel-1 selection versus control T cells) of GCTGTGGGGACTGCTAAAAG (chemistry not fully specified) ?
2.22

Need Pmel+ (sgRNA Log(2) fold change, Pmel-1 selection versus control T cells), item GGAATCCCTGTGCTGATCGT (chemistry not fully specified)
-0.49
